Catalogue of substances with associated GI50
# Tested on: M19-MEL
# protocol: NCI tumour cell line growth inhibition, 48 h
Among all 15,000 sequences or so, about 620 (4.1%) were called active. Only a sample is shown. Results with a measured potency or affinity are listed apart.
Give a bare numeral; the unit µM is implied.

substance="mu-(1,7-nanodiamine-N,N')bis-(cis-aminedichloroplatimum (II)), CHEMBL2146215" studytarget=M19-MEL measurementname=GI50 unitofmeasure=µM recordedvalue=1.36
substance="[Bis(aminomethyl)tetramethylenesilane]tetrachloropaltinum(IV), CHEMBL2146189" studytarget=M19-MEL measurementname=GI50 unitofmeasure=µM recordedvalue=2.83
substance="cis-Bis[[(trimethylsilyl)methyl]amino]tetrachloroplatinum(IV), CHEMBL2146191" studytarget=M19-MEL measurementname=GI50 unitofmeasure=µM recordedvalue=3.37

Shift focus to the following entry.
Query (substance): [Bis(aminomethyl)tetramethylenesilane]dichloropaltinum(II), CHEMBL2146205 ; field requested: GI50
19.3
